molecular target: the molecule itself; assay: X-ray crystal structure; self-association of protomers
Parameter: binding result

>  <Protein>
HALC2_068 (other, De novo designed protomer; pair is protomer with identical protomer (C2 homo-dimer)) MIKVPEDLERIGRELRARGLDTKRLLEEGPKLYPELSIPDLMAIALYDHLNLDPEFLYRLLQQSR

>  <Result>
binds

$$$$
>  <Protein>
HALC3_104 (other, De novo designed protomer; pair is protomer with identical protomer (C3 homo-trimer)) KRIDEIESKLKHLEEFTTHLIKLMETMLELLKLVSDGKSDSEEYKELLEKAEEYLKQATEAAKKI

>  <Result>
binds

$$$$
>  <Protein>
HALC4_135 (other, De novo designed protomer; pair is protomer with identical protomer (C4 homo-tetramer)) MEKFKEQLLEEVKKIVLETMTKVMEHLEKWFVTLAEIIITKSEEKLEELKETMEKSIEELRKEAE

>  <Result>
binds

$$$$
>  <Protein>
HALC3_109 (other, De novo designed protomer; pair is protomer with identical protomer (C3 homo-trimer)) REEIEEAVKEAELKVLAIVLVALRSVSHYEPLSRLYESFLDALKKALSEEELKEVEKEAERIEKK

>  <Result>
binds

$$$$
